Tested on: rice
Assay: Test Example 2: soil surface treatment, upland pot test
Assay type: in vivo, Oryza sativa L.
Conditions: active ingredient 250 g/ha, observed 20th to 28th day
Endpoint: Growth controlling degree (%) Rice
Quick note: give the figure in %, leave out the unit.

# example entries with known answers
{"Molecule": "CC(C)C(c1cnccc1C(F)(F)F)N(C)C(=O)C(F)(F)F (stereo not drawn)", "Unit of measure": "%", "Growth controlling degree (%) Rice": 70}
{"Molecule": "CCC(Br)C(=O)N(C)C(c1cnccc1C(F)(F)F)C(C)C (stereo not drawn)", "Unit of measure": "%", "Growth controlling degree (%) Rice": 60}

As a next step, examine the molecule that follows.
The molecule CC(C)C(c1cnccc1C(F)(F)F)N(C)C(=O)Cc1ccc(Br)cc1F (racemic) , tested on rice, showed Growth controlling degree (%) Rice of 40
